Measured values drawn from patent US20240325486A1 for this set.

What β-Arrestin recruitment, EC50 was measured for each of the following?
- STUDY TARGET: CMKLR1 (recombinant, species not given)
- TEST NAME: cell-based or functional assay
Non-standard residues stand in square brackets, D forms with d. No end group written: not given here. Tic = O=C(O)[C@@H]1Cc2ccccc2CN1
Numbers only, in nM.

For each of the binders below, note its β-Arrestin recruitment, EC50.
1. [dY]FLP[dS]QF[dA][Tic]S [s-Stable Chem (soluble stable chemerin peptide)]
2. [dY]FLP[dS]QF[dA][Tic]S (also: C10 lipid tail, linker and attachment not given here) [C10 lipidated stable chemerin 9 analog]
3. [dY]FLP[dS]QF[dA][Tic]S (also: C16:1 lipid tail, linker and attachment not given here) [C16:1 lipidated stable chemerin 9 analog]
4. [dY]FLP[dS]QF[dA][Tic]S (also: C18:1 lipid tail (which C18:1 acid not given here), linker and attachment not given here) [C18:1 lipidated stable chemerin 9 analog]
5. [dY]FLP[dS]QF[dA][Tic]S (also: C18:3 (linolenic acid) lipid tail, linker and attachment not given here) [C18:3 lipidated stable chemerin 9 analog]

1: 31.9; 2: 23.1; 3: 80.8; 4: 17.4; 5: 181

For each of the binders below, note its β-Arrestin recruitment, EC50.
1. [dY]FLP[dS]QF[dA][Tic]S (also: C4 lipid tail, linker and attachment not given here) [C4 lipidated stable chemerin 9 analog]
2. [dY]FLP[dS]QF[dA][Tic]S (also: C14:1 lipid tail, linker and attachment not given here) [C14:1 lipidated stable chemerin 9 analog]
3. [dY]FLP[dS]QF[dA][Tic]S (also: C16 (palmitic acid) lipid tail, linker and attachment not given here) [C16 lipidated stable chemerin 9 analog]
4. [dY]FLP[dS]QF[dA][Tic]S (also: cholesterol lipid tail, linker and attachment not given here) [Cholesterol lipidated stable chemerin 9 analog]

[223, 51.9, 3.23, 131]
